# System: MS2 coat protein
# Method: apparent KD of MS2 coat protein; designed switch direction (-1 OFF switch, 1 ON switch): -1; higher = weaker reporter binding
# Measurement Setup: input ligand: FMN 200 uM
The entries below come with measured apparent KD of MS2 coat protein values attached.
Please reply with the bare figure in nM and do not write the unit itself.

Report apparent KD of MS2 coat protein for ACAAGCUCUGUGGGUGGUGACAUGAGGAUCACCCAUGUUUUGCUCGUCUUGUGCCGGGCCCGGCGCCCGGGCCCGGC [-40.5, -69.4, A 8%] (Eterna round: R97, puzzle: Sensor, turn-off variant 1) please. 261

Entry AUUGUUUAUGUAGGAUAUGCCUGGCGUGCCUUUGCAGAAGGACAUGAGGAUCACCCAUGUAUUGCGGUCUGCGUUCAGAUCGCG [salish99_ExNG1_r4_034] (Eterna round: R96, puzzle: Exclusion NG 1) please 46.9

Entry AGUGUGAGGCAGGAUAUGCAAUUUGUAAGUAAUGCAGAAGGGUCUACAUGAGGAUCACCCAUGUGUGCGGUUGA [Ex6 #11] (Eterna round: R97, puzzle: Exclusion 6) please 447

Entry GAAAACGCAGAGGAUAUUUCAGAUCAAAGCUGCAAAGAAGGCUGCACAUGAGGAUCACCCAUGUGGUCUCAAAA [Mod of Quesina 3 - Jieux - Exclusion 6] (Eterna round: R97, puzzle: Exclusion 6) please 422

Entry AUAUAGAUGGUCAGGAUAUGCUAGUGAUAACAGUAGCAGAAGGGACAUGAGGAUCACCCAUGUGGAUACCGCAC [Brourd's EX4 #7] (Eterna round: R97, puzzle: Brourd's mod of Exclusion 4) please 122

Entry UCCUAACAUGAGGAUCACCCAUGUCAGGAUAUCUACGUCAGAACCACGUAUGUAGGCGAGAGAAGGGACAGAGG [EX1 C.14] (Eterna round: R97, puzzle: Exclusion 1) please 21

Every entry's value here was drawn from the supplement of paper PMC9170038.
